Ref: patent US8669260B2

# experimentalSystem: PXR (Homo sapiens)
# Sequence (O75469 whole entry): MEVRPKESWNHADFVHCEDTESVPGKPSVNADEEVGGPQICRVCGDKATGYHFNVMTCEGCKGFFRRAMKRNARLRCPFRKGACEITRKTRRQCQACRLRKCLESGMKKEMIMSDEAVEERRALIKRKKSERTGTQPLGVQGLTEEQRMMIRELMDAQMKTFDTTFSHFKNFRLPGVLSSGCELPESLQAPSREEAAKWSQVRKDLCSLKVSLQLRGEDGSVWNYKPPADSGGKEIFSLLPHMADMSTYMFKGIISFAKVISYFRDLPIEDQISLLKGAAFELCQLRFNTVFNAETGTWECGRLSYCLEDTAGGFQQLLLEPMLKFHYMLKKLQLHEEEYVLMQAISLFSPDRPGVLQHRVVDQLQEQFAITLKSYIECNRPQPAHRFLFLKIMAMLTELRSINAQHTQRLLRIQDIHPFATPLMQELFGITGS
# experimentNotes: cell-based
# Parameters: expressed in transfected cells; host or cells: HepG2
# settings: non-linear regression; activation by 10 μM rifampicin; read-out: PXR Inhibition IC50
valueKind: pIC50
Keep in mind that pIC50 stands for -log10 of concentration in molar terms.

Please look up its pIC50: CC(=O)N1CCN(c2ccc(OC[C@H]3CO[C@@](C)(c4ccc(Cl)cc4Cl)O3)cc2)CC1 [UCL2158H] 4.84
